Taken from patent US12115154B2.

PROTOCOL DETAILS: In vivo PK in mice (IV and PO)
MEASUREMENT SETUP: male, C57BL/6, mouse, plasma, 3 mg/kg IV versus 15 mg/kg PO, read-out: oral bioavailability (F %)
Description: A representative compound (Compound 1041) was tested for oral bioavailability and efficacy in mice. […] Compound readily dissolved at 1.5 mg/ml in a 1% Tween-80 aqueous solution with 10-15 minutes sonication. […] In brief, blood was immediately centrifuged, and the resulting plasma was frozen and stored at −80° C. until analysis. […] A 50 uL aliquot of the supernatant was mixed with 100 uL of water for the injection to the LC-MS/MS and extracts were measured using positive electrospray ionization. […]
MEASUREMENT NAME: bioavailability (%)
Answers are plain numbers, in %.

# bioavailability (molecule: Cc1cc(-c2ccc(F)cc2)ccc1C1CCCN(C2CCCC2)C1 (stereo not shown) ) is 44
